# RICE crop damage, phytotoxicity rating (0-100 scale) values compiled below
test system: upland rice (Oryza sp., var.Tebonnet, RICE); test: Pre-emerge greenhouse screening, crop safety (phytotoxicity rating); assay type: in vivo; settings: 125 g ai/ha, 14 days after application

input: Give its RICE crop damage, phytotoxicity rating (0-100 scale) value. Item: `Cn1c(=S)n(C)c(=O)n(-c2cc(Oc3ccccc3)c(Cl)cc2F)c1=O`
output: 0

input: Next entry: `Cn1c(C(F)(F)F)cc(=O)n(-c2cc(Oc3ncccc3[N+](=O)[O-])c(Cl)cc2F)c1=S`
output: 35

input: Next entry: `COc1ccccc1Oc1cc(-n2c(=O)cc(C(F)(F)F)n(C)c2=S)c(F)cc1C#N`
output: 50

====

system: large crabgrass (Digitaria sanguinalis, DIGSA); experiment: Pre-emerge greenhouse herbicide activity screening, phytotoxicity rating; assay type: in vivo; settings: 125 g ai/ha, 14 days after application
endpoint: DIGSA phytotoxicity rating (0-100 scale)
Provide a numeric answer; units are not to be included.

Would you please look over these solved cases?
input: Give its DIGSA phytotoxicity rating (0-100 scale) value. Item: `Cn1c(C(F)(F)F)cc(=O)n(-c2cc(Oc3ccccc3N)c(Cl)cc2F)c1=S`
output: 55

input: Next entry: `Fc1cc(Cl)c(Oc2ncccn2)cc1-c1nn2c(c1Cl)CCCC2`
output: 100

input: Next entry: `Cn1c(=S)n(C)c(=O)n(-c2cc(Oc3ccccc3[N+](=O)[O-])c(Cl)cc2F)c1=O`
output: 60

input: Next entry: `Cn1c(C(F)(F)F)cc(=O)n(-c2cc(Oc3ncccc3[N+](=O)[O-])c(Cl)cc2F)c1=S`
output: 98

input: Next entry: `N#Cc1c(-c2cc(Oc3ncccn3)c(Cl)cc2F)nn2c1CCCC2`
output: 99

input: Next entry: `Cn1c(=S)n(C)c(=O)n(-c2cc(Oc3ccccc3N)c(Cl)cc2F)c1=O`
output: 75

Further cases:
input: Give its DIGSA phytotoxicity rating (0-100 scale) value. Item: `Cn1c(C(F)(F)F)cc(=O)n(-c2cc(Oc3ncccn3)c(Cl)cc2F)c1=S`
output: 100

input: Next entry: `Cn1c(C(F)(F)F)cc(=O)n(-c2cc(Oc3ncccc3C(F)(F)F)c(Cl)cc2F)c1=S`
output: 99

====

# DIGSA phytotoxicity rating (0-100 scale) values compiled below
tested on: large crabgrass (Digitaria sanguinalis, DIGSA); assay: Pre-emerge greenhouse herbicide activity screening, phytotoxicity rating; assay type: in vivo; conditions: 250 g ai/ha, 14 days after application
Provide a numeric answer; units are not to be included.

input: Give its DIGSA phytotoxicity rating (0-100 scale) value. Item: `Cn1c(C(F)(F)F)cc(=O)n(-c2cc(Oc3ncccn3)c(Cl)cc2F)c1=S`
output: 100

input: Next entry: `Cn1c(=S)n(C)c(=O)n(-c2cc(Oc3ccccc3)c(Cl)cc2F)c1=O`
output: 80

input: Next entry: Cn1nc(-c2cc(Oc3ncccn3)c(Cl)cc2F)c(Cl)c1[S+]([O-])C(F)F (stereo not shown)
output: 100

input: Next entry: `Cn1c(C(F)(F)F)cc(=O)n(-c2cc(Oc3ncccc3[N+](=O)[O-])c(Cl)cc2F)c1=S`
output: 99

Further cases:
input: Give its DIGSA phytotoxicity rating (0-100 scale) value. Item: `Cn1c(C(F)(F)F)cc(=O)n(-c2cc(Oc3ccccc3[N+](=O)[O-])c(Cl)cc2F)c1=S`
output: 99

input: Next entry: `Cn1c(C(F)(F)F)cc(=O)n(-c2cc(Oc3ccccc3)c(C#N)cc2F)c1=S`
output: 100

input: Next entry: `Cn1c(C(F)(F)F)cc(=O)n(-c2cc(Oc3ccccc3N)c(Cl)cc2F)c1=S`
output: 75

input: Next entry: `Cn1c(=S)n(C)c(=O)n(-c2cc(Oc3ccccc3[N+](=O)[O-])c(Cl)cc2F)c1=O`
output: 80

input: Next entry: `Cn1c(C(F)(F)F)cc(=O)n(-c2cc(Oc3ncccc3C(F)(F)F)c(Cl)cc2F)c1=S`
output: 100

====

# ABUTH phytotoxicity rating (0-100 scale) values compiled below
test system: velvetleaf (Abutilon theophrasti, ABUTH); test: Post-emerge greenhouse herbicide activity screening, phytotoxicity rating; type: in vivo; conditions: 250 g ai/ha, 14 days after application
Provide a numeric answer; units are not to be included.

input: Give its ABUTH phytotoxicity rating (0-100 scale) value. Item: Cn1c(=S)n(C)c(=O)n(-c2cc(Oc3ncccn3)c(Cl)cc2F)c1=O [Compound 2-1]
output: 100

input: Next entry: COc1ccc(Oc2cc(-n3c(=O)cc(C(F)(F)F)n(C)c3=S)c(F)cc2C#N)cc1 [Compound 1-72]
output: 90

input: Next entry: Fc1cc(Cl)c(Oc2ncccn2)cc1-c1nn2c(c1Cl)CCCC2 [Compound 6-1]
output: 100

input: Next entry: Fc1cc(Cl)c(Oc2ncccn2)cc1-c1nn2c(c1Br)CCCC2 [Compound 6-2]
output: 100

input: Next entry: Cn1c(=S)n(C)c(=O)n(-c2cc(Oc3ccccc3[N+](=O)[O-])c(Cl)cc2F)c1=O [Compound 2-17]
output: 98

input: Next entry: Cn1c(C(F)(F)F)cc(=O)n(-c2cc(Oc3ncccc3C(F)(F)F)c(Cl)cc2F)c1=S [Compound 1-15]
output: 95

Further cases:
input: Give its ABUTH phytotoxicity rating (0-100 scale) value. Item: Cn1c(C(F)(F)F)cc(=O)n(-c2cc(Oc3ccccc3)c(C#N)cc2F)c1=S [Compound 1-69]
output: 100

input: Next entry: O=[N+]([O-])c1ccccc1Oc1cc(-c2nn3c(c2Cl)CCCC3)c(F)cc1Cl [Compound 6-19]
output: 100

====

# SOY crop damage, phytotoxicity rating (0-100 scale) values compiled below
tested on: soybean (Glycine max L., var. Pella 86, SOY); experiment: Post-emerge greenhouse screening, crop safety (phytotoxicity rating); assay type: in vivo; settings: 125 g ai/ha, 14 days after application
Provide a numeric answer; units are not to be included.

input: Give its SOY crop damage, phytotoxicity rating (0-100 scale) value. Item: Cn1nc(-c2cc(Oc3ncccn3)c(Cl)cc2F)c(=O)n(C)c1=S [Compound 4-1]
output: 50

input: Next entry: Cn1c(=S)n(C)c(=O)n(-c2cc(Oc3ccccc3[N+](=O)[O-])c(Cl)cc2F)c1=O [Compound 2-17]
output: 0

input: Next entry: Fc1cc(Cl)c(Oc2ncccn2)cc1-c1nn2c(c1Br)CCCC2 [Compound 6-2]
output: 99

Further cases:
input: Give its SOY crop damage, phytotoxicity rating (0-100 scale) value. Item: Cn1nc(-c2cc(Oc3ncccn3)c(Cl)cc2F)c(Cl)c1[S+]([O-])C(F)F (stereo not shown) [Compound 5-1]
output: 65

====

tested on: field corn (Zea mays L., var. Dekalb 535, CORN); experiment: Pre-emerge greenhouse screening, crop safety (phytotoxicity rating); type: in vivo; settings: 125 g ai/ha, 14 days after application
Param threshold (20) applies to CORN crop damage, phytotoxicity rating (0-100 scale); output Y when value >= threshold, N when value < threshold.

input: Please tell me: is the compound Fc1cc(Cl)c(Oc2ncccn2)cc1-c1nn2c(c1Cl)CCCC2 [Compound 6-1] at or over 20 in terms of CORN crop damage, phytotoxicity rating (0-100 scale)?
output: Y

Further cases:
input: Please tell me: is the compound Cn1c(C(F)(F)F)cc(=O)n(-c2cc(Oc3ccccc3)c(Cl)cc2F)c1=S [Compound 1-47] at or over 20 in terms of CORN crop damage, phytotoxicity rating (0-100 scale)?
output: N

input: Next entry: Cn1c(=S)n(C)c(=O)n(-c2cc(Oc3ccccc3N)c(Cl)cc2F)c1=O [Compound 2-18]
output: N

====

# CORN crop damage, phytotoxicity rating (0-100 scale) values compiled below
test system: field corn (Zea mays L., var. Dekalb 535, CORN); test: Pre-emerge greenhouse screening, crop safety (phytotoxicity rating); type: in vivo; conditions: 250 g ai/ha, 14 days after application
Provide a numeric answer; units are not to be included.

Would you please look over these solved cases?
input: Please provide the recorded CORN crop damage, phytotoxicity rating (0-100 scale) for `Cn1c(=S)n(C)c(=O)n(-c2cc(Oc3ncccn3)c(Cl)cc2F)c1=O` , tested on field corn (Zea mays L., var. Dekalb 535, CORN).
output: 65

input: Next entry: `Cn1c(C(F)(F)F)cc(=O)n(-c2cc(Oc3ccccc3[N+](=O)[O-])c(Cl)cc2F)c1=S`
output: 0

input: Next entry: `COc1ccccc1Oc1cc(-n2c(=O)cc(C(F)(F)F)n(C)c2=S)c(F)cc1C#N`
output: 5

Next compound, CORN crop damage, phytotoxicity rating (0-100 scale) to be filled in.
input: Please provide the recorded CORN crop damage, phytotoxicity rating (0-100 scale) for `Cn1c(C(F)(F)F)cc(=O)n(-c2cc(Oc3ccccc3)c(C#N)cc2F)c1=S` , tested on field corn (Zea mays L., var. Dekalb 535, CORN).
output: 10
